# EXPERIMENTAL_PROTOCOL: rescue of yeast from PfHsp40 toxicity, primary screen, S. cerevisiae, ATP luminescence (AID 504582);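 note: yeast W303a lacking pdr1 and pdr3 grown in galactose medium; growth measured after three days at 30 °C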
# ASSAY_CONDITIONS: S. cerevisiae expressing PfHsp40, growth rescue, at 12.5 µM, active compounds read high
Screen size: about 340,000 compounds; about 2,300 (0.68%) were called active. Only a selection was taken, and actives are over-represented in it overall.
MEASURED_ENDPOINT: growth rescue (%)
Kindly provide the numeric value in % only, without the unit symbol.

Tell me the measured growth rescue of `O=C(O)CCCCOn1ccnc1` , please.
-2.14

// same read-out, input: `O=c1[nH]c2cccnc2n(CCNc2ncc(C(F)(F)F)cc2Cl)c1=O`
-1.76

Try this molecule too: `CC(=O)c1c(C)[nH]c(C(=O)NCc2ccc(C)cc2)c1C`
-0.188

Then `Cc1cc(Nc2cccc(C)c2C)n2ncnc2n1` ?
-0.558

Another molecule to check: CCCC(C(=O)n1nc(C)cc1C)C(NS(=O)(=O)c1ccc(C)cc1)c1ccccc1 (centres undefined)
5.61

Further, for CC1CCCN(CC(O)COCc2ccccc2)C1 (centres undefined) ?
-0.272

Then this molecule: `COc1ccc(C(=O)NC2CC2)cc1OC1CCN(Cc2cnn(C)c2)CC1`
-0.458

// same read-out, input: `CC(C)NC(=O)N1CCN(c2ccncc2S(=O)(=O)N2CCCCC2)CC1`
-0.643

Same for `COC(=O)CN1C(=O)[C@H]2[C@@H](C3CC3)N3C(=O)CN(Cc4ccc(-c5ccccc5)cc4)C(=O)[C@@]3(Cc3ccccc3)[C@H]2C1=O`
-1.17

Let us now turn to `CCn1cnc2scc(-c3ccc(C)c(C)c3)c2c1=O`
1.65

Record: COc1ccc(C(=O)C2CCCN(C(=O)c3cc4nc(C)cc(C)n4n3)C2)cc1F (centres undefined)
-1.21

Do the same for `CC(=O)Nc1ccc(S(=O)(=O)NCC(=O)OCC(=O)c2ccc[nH]2)cc1` please
-1.02

Would you mind doing `Cc1c(NC(=O)CSc2cccc3cccnc23)c(=O)n(-c2ccccc2)n1C` as well?
5.35

Do the same for `CCn1c(SC)nc(O)c(C(c2ccc(OC)c(O)c2)c2c(O)nc(SC)n(CC)c2=O)c1=O` please
-0.176

Request: Oc1ccccc1C1=NN(c2ccccc2)C(c2ccccc2)C1 (centres undefined)
134

Also check `O=C(COc1ccccc1[N+](=O)[O-])N/N=C/c1ccc[nH]1`
-1

Proceed to `CCOc1ccc(NC(=O)N2CC=C(n3c(=O)[nH]c4ccccc43)CC2)cc1`
-0.78

Repeat for the following molecule: COc1cc(C(=O)NC2CCN(C)CC2)ccc1Nc1ncc2c(n1)N(C1CCC(O)CC1)CCC(=O)N2C (centres undefined)
44.4

Repeat for the following molecule: `O=C(Nc1cccc([N+](=O)[O-])c1)Nn1cnnc1`
0.084

Query CCOC(=O)C(C)Oc1cccc2c(=O)n(CC(=O)N3CCc4ccccc43)ccc12 (centres undefined) next
92.2

What about this molecule? `COc1ccccc1C1CCN(C(=S)Nc2ccc(Br)cc2)CC1`
41.2

Same for `O=C(NCCCN1CCCC1=O)c1ccc(S(=O)(=O)Nc2ccccc2)cc1`
-0.823

Let us now turn to `COc1ccccc1NC(=S)N1CCN(C(c2ccccc2)c2ccccc2)CC1`
-0.67

What do we get for `CSc1ccc(/C=N/NC(=O)c2cccc(Cl)c2)cc1` ?
40.3

And what about the molecule `CCCc1nc2scc(-c3ccc(C)cc3)c2c(=O)n1N` ?
0.943

Now the molecule `COc1cc(C)cc(CN2CCC(Cc3ccccc3)CC2)c1O`
0.509

Another molecule to look at: `Cc1cc(S(=O)(=O)NC2CCCC2)ccc1-n1cnnn1`
0.47

Next entry: `COc1cc(C)ccc1OCC(=O)OCC(=O)c1ccc[nH]1`
62.4

Follow-up item: `COC(=O)c1cc2occc2n1Cc1nc(-c2ccccc2C)oc1C`
1.43

Do the same for `Oc1c(CN2CCCC2)cc(COCc2ccccc2)c2cccnc12` please
281

// same read-out, input: `COc1ccc(C(=O)COC(=O)COc2ccc(C)c(C)c2)cc1`
0.0365

Similarly, CCC(C(=O)OC)n1cnc2scc(-c3ccc(C)cc3)c2c1=O (centres undefined) ?
49.2

Follow-up item: `CCC(CC)NC(=O)/C=C/c1cccc([N+](=O)[O-])c1`
-2.62

Please give the result for Cc1ccc(N2C(=O)C3N=NN(CC(=O)N4N=C(c5cccc6ccccc56)CC4c4ccccc4)C3C2=O)cc1 (centres undefined) too.
-1.11

// same read-out, input: O=C1C2N=NN(CC(=O)N3N=C(c4cccc5ccccc45)CC3c3ccccc3)C2C(=O)N1c1ccccc1 (centres undefined)
-1.21

Please do the same for `CN(C)C=NC(=O)c1cccn1-c1ncc(C(F)(F)F)cc1Cl` as well.
-0.737

Same thing, different molecule: `Cc1ccc(NN=Nc2nc3c([nH]2)c(=O)n(C)c(=O)n3C)cc1`
-0.566

Also, `O=C(N/N=C/c1ccc(Cl)c(Cl)c1)c1ccc2nc[nH]c2c1` please.
0.517

Please do the same for `CC/C(=C\c1ccc(Cl)cc1)c1ccncc1` as well.
0.0255

Same question for CCC(C)N(C)C1CCN(C(=S)Nc2ccc(OC)cc2)CC1 (centres undefined) please.
0.96

Continue with `CC(=O)c1ccc(NC(=O)c2ccc(-n3cncn3)c([N+](=O)[O-])c2)cc1`
0.873

And what about the molecule `Cc1nn(Cc2ccc(Cl)cc2)c(Cl)c1/C=N/NC(=O)CNc1ccccc1F` ?
-0.219

Would you mind doing `CC(=O)c1cc(NC(=O)c2ccccc2)c(=O)oc1/C=C/N(C)C` as well?
1.15

Also need Cc1ccc(CNC(=O)CC2Sc3ccccc3NC2=O)cc1 (centres undefined) , thanks.
0.304
